The origin of these recorded values is PubChem BioAssay (NCI).

Assay: NCI Yeast Anticancer Drug Screen. Data for the mec2-1 strain (AID 157)
Settings: S. cerevisiae mec2-1 strain, at 50.0 µM, stronger effect = higher value
Compounds without any hit were thinned out: in the full panel of roughly 79,000, 15% have a hit.
measurement.type: growth inhibition (%)
Numbers only here, please. The scale is %.

(Q) Look at this compound and give its reported growth inhibition. CC1CCc2c(ccc3ccccc23)C1 (stereo not given)
(A) -16.4

(Q) Also COC(=O)CC[C@@H](NC(=O)C(C)NC(=O)COC1C(O)C(COC(=O)CCCCCCCCCCNC(=O)c2ccc([N+](=O)[O-])c3[nH]c4cc(Br)ccc4c(=O)c23)OC(OCc2ccccc2)C1NC(C)=O)C(N)=O (stereo not given in full) ?
(A) -10.7

(Q) Same lookup for CC1CCc2cc(Br)ccc2N1N (stereo not given) , please.
(A) 0.85

(Q) Can you check "C[n+]1ccccc1/C=C/c1ccc([N+](=O)[O-])cc1" next?
(A) 5.8

(Q) Next entry: "OC(C(=S)N1CCOCC1)(c1ccccc1)c1ccccc1"
(A) 17.6
